Data origin: patent US20210079083A1

Reported koff values for the following binders.
TARGET OR TEST SYSTEM: T1, Human Angiopoietin-2 full-length (hAng2) (human, UniProt O15123 19-496)
T1 construct: The cell assays used full-length hAng2 from R&D Systems; also called human Ang2; A2
T1 sequence: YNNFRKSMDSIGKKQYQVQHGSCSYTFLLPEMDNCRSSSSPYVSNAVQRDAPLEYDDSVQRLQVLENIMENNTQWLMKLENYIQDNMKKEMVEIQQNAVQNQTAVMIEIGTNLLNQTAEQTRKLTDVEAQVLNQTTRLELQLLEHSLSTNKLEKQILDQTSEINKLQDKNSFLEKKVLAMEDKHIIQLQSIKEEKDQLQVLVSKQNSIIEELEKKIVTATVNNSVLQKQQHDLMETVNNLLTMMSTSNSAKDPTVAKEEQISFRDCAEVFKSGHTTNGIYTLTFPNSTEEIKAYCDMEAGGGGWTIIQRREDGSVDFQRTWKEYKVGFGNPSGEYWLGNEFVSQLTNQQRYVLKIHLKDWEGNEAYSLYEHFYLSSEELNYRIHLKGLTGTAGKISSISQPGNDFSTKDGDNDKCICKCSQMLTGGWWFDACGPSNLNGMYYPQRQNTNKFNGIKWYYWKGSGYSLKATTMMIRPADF
EXPERIMENT NOTES: BLI (Octet), hAng2 fixed on AR2G sensor, antibody 3.125-50 nM in solution, 1:1 global fit
The reply should contain only the number, in s⁻¹.

Known koff results, listed for orientation:
BINDER	REPORTED PROPERTY	MEASURED VALUE
mouse anti-Ang2 antibody 4B9 (antibody, V domains shown, Mouse monoclonal antibody from a hybridoma (KCLRF-BP-00418), purified on Protein G) VH: EVQLVESGGGLVKPGGSLKLSCAASGFTFSDYYMYWVRQTPEKRLEWVATISVGGSFTYYPDSVKGRFTISRDNAKNNLYLQMSSLKSEDTAMYYCARDWGLRPWFVYWGQGTLVTVSA VL: DIVMTQSHKFMSTSVGDRVSITCKASQDVSTAVAWYQQKPGQSPKLLIYWASTRHTGVPDRFTGSGSGTDYTLTISSVQAEDLALYYCQQHYSTPPTFGSGTKLEIK	koff	5.04e-07
mouse anti-Ang2 antibody 2F10 (antibody, V domains shown, Mouse monoclonal antibody from a hybridoma, purified on Protein G) VH: QVQLVESGGGLVKPGGSLKLSCAASGFTFSDYYMYWIRQTPEKRLEWVATINDGGSYTYYPDSVKGRFTISRDNAKNNLYLQMSSLKSEDTAMYYCARDWGLRPWFVYWGQGTLVTVSA VL: DIVMTQSHKFMSTSVGDRVSITCKASQDVSTAVAWYQQKPGQSPKLLIYWASTRHTGVPDRFTGSGSGTDYTLTISSVQAEDLALYYCQQHYTTPPTFGSGTKLEIK	koff	1.71e-05

Then this binder:
Supply reported koff belonging to this binder: mouse anti-Ang2 antibody 2C8 (antibody, V domains shown) VH: QVQLQQSGPQLVRPGASVKISCKASGYSFTSYWMHWVKQRPGQGLEWIGMIDPSDSETRLNQKFKDKASLTVDKSSSTAYMQLSSPTSGDSAVYYCARRFYYGSDWYFDVWGAGSTVTVSS VL: DIVMTQSHKFMSTSVGDRVSITCKASQDVGTAVAWYQQKPGQSPKLLIYWASTRHTGVPDRFTGSGSGTDFTLTISNVQSEDLADYFCQQYSSYPLTFGSGTKLEIK 3.54e-06
